method_summary: Cytotoxicity against p53-knockdown human U87MG cells after 5 days by methylene blue staining assay
Format: functional, cell-based, U-87MG ATCC
protocol_conditions: U-87 MG, 120 h
measured_attribute: pIC50
Worth noting: pIC50 values are minus log10 of concentrations stated in mol/L.

Query block: Using the record for COc1cc(OC)c(C(C#CCCc2ccc(O[Si](C)(C)C(C)(C)C)cc2)CC(=O)c2ccc(OC(C)=O)cc2)c(OC)c1 (configuration not stated) , report its pIC50.
Result block: 5.15

---
Query block: Reported pIC50 for COc1cc(OC)c(C(C#CCCc2ccc(O[Si](C)(C)C(C)(C)C)cc2)CC(=O)c2ccc(O)cc2)c(OC)c1 (configuration not stated) : what is it?
Result block: 5.15
